Each record here notes measured melting point.

Please review the following examples before continuing.
- MOLECULE: "CNC1CCN(c2nncc3cc(OC)c(OC)cc23)CC1"
  REPORTED_MEASUREMENT: "194 to 196 °C"
- MOLECULE: "CCOC(=O)c1cnn(C)c1C(=O)Nc1ccn2nc(-c3cccnc3F)nc2c1"
  REPORTED_MEASUREMENT: "249 to 251 °C"
- MOLECULE: "N#Cc1ccc2c(c1-c1c(C#N)ccc3c1OCO3)OCO2"
  REPORTED_MEASUREMENT: "213 to 215 °C"
- MOLECULE: "NCc1ccc(CN2CCN(c3ncccn3)CC2)cc1"
  REPORTED_MEASUREMENT: "70 to 72 °C"
- MOLECULE: "O=C1CC[C@@H]([N+](=O)[O-])[C@H](c2ccccc2)N1 (relative stereo)"
  REPORTED_MEASUREMENT: "174 to 175 °C"
- MOLECULE: "CCOC(=O)[C@H]1[C@@H]2C=CC(=O)[C@@H]21 (racemic)"
  REPORTED_MEASUREMENT: "77 to 78 °C"

query: Query: melting point; subject: CC(=O)Nc1ccc2c(c1)[C@@H](O)[C@H](Br)C(C)(C)O2 (relative stereo)
result: 170 °C

query: For the molecule shown here, CC(=O)c1ccc2ccc(C(=O)O)cc2c1 , give the reported melting point.
result: 224 to 228 °C

query: Quick check: melting point of CC1Cc2cc3c(cc2C(c2ccc(Cl)cc2)=NN1c1nccs1)OCO3 (stereo unspecified) ?
result: 116 to 117 °C

query: Fill blank: measured melting point of the molecule CC(c1ccc(-c2ccccc2)c(F)c1)c1csc(NCCc2ccccc2)n1 (stereo unspecified) is ____.
result: 74.5 to 75.5 °C

query: What melting point value was documented for this molecule, CCOc1nsc(NC(=O)Oc2ccccc2)c1C#N ?
result: 252 to 253 °C

query: Fill in the blank: the reported melting point of COC(=O)C(C)(C)OCc1cc2cc(Cl)ccc2n1S(=O)(=O)c1ccc2c(c1)CCN2C(C)=O is ____.
result: 128 to 130 °C

query: Suppose we examine the molecule CCn1cc(O)c(=O)c2ccccc21 ; what melting point value has been reported?
result: 180 to 182 °C

query: Please give the measured melting point for this molecule: N#Cc1cc2c(cc1C(F)(F)F)[nH]c(=O)c(=O)n2OC(=O)c1ccccc1
result: 186 °C

query: I would be grateful if you could share the reported melting point for CC(C)(C)OOC(C)(C)c1ccc(C(C)(C)OOC(C)(C)C)cc1 .
result: 76 to 77 °C

query: // returns reported melting point for input CN1CCN(Cc2ccc(Cl)nc2)C1=N[N+](=O)[O-]
result: 165 to 167 °C

query: Name the reported melting point value associated with the molecule O=Cc1cccc(/C=C/c2ccc3cc(F)ccc3n2)c1
result: 110 to 111 °C

query: Item under review: CC(=O)NC[C@H]1CN(c2ccc(C3=CCCN(C(=O)CO)C3)c(F)c2)C(=O)O1 . Reported melting point?
result: 188 to 190 °C

query: Which melting point is reported for this molecule? CCc1ccc(CCOc2ccc(NC(=O)N(C)OC)cc2)nc1
result: 90.5 to 92 °C

query: Need melting point, item N#Cc1cc(C2CCCO2)nn1-c1ccc(NC(=O)c2ccncc2F)cc1 (stereo unspecified)
result: 160 to 162 °C

query: Field request: melting point | item: CC(=O)c1ccc(C(C)ON2C(C)(C)CCCC2(C)C)cc1 (stereo unspecified)
result: 61.5 to 63 °C

query: Query: melting point; subject: Clc1cc2c(oc3c(Cl)c(Br)c(Cl)c(Br)c32)c(Br)c1Br
result: 288 to 290 °C

query: # input molecule: CCc1ccc(C2C(=O)Oc3ccccc32)cc1 (stereo unspecified) ; wanted: its melting point
result: 127 to 132 °C

query: State the recorded melting point for this entry: COc1ccccc1-c1c(NC(=O)OC(C)(C)C)oc(=O)c2ccccc12
result: 203 to 205 °C

query: Recorded melting point for COc1cccc(C(=O)Nc2ccc(-n3nc(C(F)(F)F)cc3C(F)(F)F)cc2)c1 , please?
result: 169 to 172 °C

query: What does the record list as melting point for CC1=C(c2ccccc2)C(=O)N(C(C)(C)C(=O)Cc2cc(F)cc(F)c2)CO1 ?
result: 76.5 to 77.5 °C
